FYI, the data here is from patent US20230331852A1.

Target: T1, recombinant human CLEC-1 protein with His Tag (#1704-CL R&D Systems) (human, UniProt Q8NC01 74-280)
T1 construct: Bought protein; also called His-CLEC1; His Clec-1; not shown: His tag
T1 sequence: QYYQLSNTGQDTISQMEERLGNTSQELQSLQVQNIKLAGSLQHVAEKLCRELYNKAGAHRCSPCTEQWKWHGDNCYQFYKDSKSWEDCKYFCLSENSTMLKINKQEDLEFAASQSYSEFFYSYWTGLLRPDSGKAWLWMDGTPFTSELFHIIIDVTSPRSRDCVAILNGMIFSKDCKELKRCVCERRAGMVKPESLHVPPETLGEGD
Assay: Blitz biolayer interferometry, His-CLEC1 on Ni-NTA biosensor, antibody at 20 ug/mL
quantity_measured: kon (M⁻¹ s⁻¹)
Give the value in M⁻¹ s⁻¹ but do not write M⁻¹ s⁻¹ after it.

Check out these entries, answers already filled in.
murine anti-hCLEC1 antibody 5D1-A5 (antibody, V domains shown, Mouse hybridoma antibody) VH: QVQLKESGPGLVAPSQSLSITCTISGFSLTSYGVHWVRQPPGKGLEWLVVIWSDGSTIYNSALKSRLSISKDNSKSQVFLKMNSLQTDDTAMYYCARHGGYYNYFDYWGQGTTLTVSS VL: DIQMNQSPSSLSASLGDTITITCHASQNINVWLSWYQQKPGNIPKLLIYKASNLHTGVPSRFSGSGSGTGFTLTISSLQPEDIATYYCQQGQSYWTFGGGTKLEIK :: 76600
murine anti-hCLEC1 antibody 11H11-G11 (antibody, V domains shown, Mouse hybridoma antibody) VH: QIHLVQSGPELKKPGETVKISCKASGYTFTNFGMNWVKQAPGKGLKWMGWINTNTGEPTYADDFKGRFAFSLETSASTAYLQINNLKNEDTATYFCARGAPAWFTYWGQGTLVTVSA VL: DIQMTQSPASLSASVGETVTITCRATENIYSYLAWYQQKQGKSPQFLVYNAKTLAEGMPSRFSGSGSGTQFSLKINILQPEDFGTYYCQHHFGTPLTFGAGTKLELK :: 270000
murine anti-hCLEC1 antibody 10F4-H2 (antibody, V domains shown, Mouse hybridoma antibody) VH: QVQLQQSGTELARPGASVKMSCKASGYIFTDYTIHWVKQRPGQGLEWVGYINPSSGYTNYNQKFKAKATLTADKSSSTAYMQLSSLTSEDSAVYYCTPMFRRSYFDYWGQGTTLTVSS VL: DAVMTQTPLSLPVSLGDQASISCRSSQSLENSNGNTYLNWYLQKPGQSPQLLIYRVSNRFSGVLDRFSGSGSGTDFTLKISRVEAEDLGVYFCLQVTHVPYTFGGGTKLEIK :: 109000
murine anti-hCLEC1 antibody 14H9-F3 (antibody, V domains shown, Mouse hybridoma antibody) VH: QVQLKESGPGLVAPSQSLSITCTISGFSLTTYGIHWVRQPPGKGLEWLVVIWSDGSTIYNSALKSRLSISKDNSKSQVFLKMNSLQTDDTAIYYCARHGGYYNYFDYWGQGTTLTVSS VL: DIQMNQSPSSLSASLGDTITITCHASQNINVWLSWYQQKPGNIPKLLIYKASNLHTGVPSRFSGSGSGTTFTLTIDSLQPEDIATYYCQQGQSYWTFGGGTKLEIK :: 89800

Prompt line: So what's the measured kon for this one? murine anti-hCLEC1 antibody 15E3-G3 (antibody, V domains shown, Mouse hybridoma antibody) VH: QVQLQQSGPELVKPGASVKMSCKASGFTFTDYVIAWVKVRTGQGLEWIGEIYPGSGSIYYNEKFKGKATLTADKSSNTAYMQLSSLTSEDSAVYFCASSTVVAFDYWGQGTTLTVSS VL: EIVLTQSPTTLAASPGEKIIITCSDSSSISSNYLHWYQQKPGFSPKLLIYGTSNLASGVPARFSGSGSGTTYSLTIGTMEAEDVATYYCQQGSSIPRTFGGGTKLEIK
Response line: 72200
